Method Description: compounds raising alpha-dystroglycan glycosylation – uHTS, Pro5-aDG cells, AlphaScreen, primary screen (AID 624168);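 further: Pro5 are CHO cells carrying HIG-tagged alpha-DG that lacks glycosylation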
Condition Label: alpha-DG glycosylation AlphaScreen (IIH6), at 10 µM, 0% Pro5, 100% B10-LARGE cell signal
The whole screen tested about 360,000 compounds, of which about 800 (0.22%) were called active.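 How the source made its calls: active means activation of at least 8% versus controls, or a plate z-score of at least 8; inactive means the rest.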 The entries come from a sample that favours actives as a whole.
Can you answer with just one of these options? True for active, False for inactive

INSERT INTO measurements (molecule, group) VALUES
  ('CCCS(=O)(=O)N1CCC(CCOc2ccccc2)(C(=O)OCC)CC1', 'False'),
  ('COCCN(C(=O)C(C)C)c1nnc(-c2ccc(C(C)(C)C)cc2)s1', 'False'),
  ('O=S(=O)(N1CCCCC1)N1CCNCC1', 'False');

Tell me the recorded outcome of this test for Clc1cc(NC2CCCCC2)ncn1 . False

Tell me the recorded outcome of this test for O=C(NCC(=O)N(Cc1cccs1)C(C(=O)NC1CCCCC1)c1ccco1)c1cccs1 (stereo unspecified) . False

Tell me the recorded outcome of this test for CCOC(=O)C1(CCOc2ccccc2)CCN(C(=O)c2cncs2)CC1 . False

Tell me the recorded outcome of this test for Cc1ccc(NC(=O)CN(C)CC(=O)Nc2cccc(F)c2)cc1[N+](=O)[O-] . True

Tell me the recorded outcome of this test for CC1=CCC2C(=O)N(c3cccc(C(=O)NC(C)c4ccccc4)c3)C(=O)C2C1 (stereo unspecified) . False
